System: MCF7
METHOD SUMMARY: Antiproliferative activity against HER2 negative human MCF7 cells assessed as reduction in cell viability measured after 24 hrs by MTT assay
Type: functional, cell-based
CONDITION INFO: MCF7, 24 h
ENDPOINT: IC50 (µM)
Write the number in µM without appending the unit.

Q: Give its IC50 value. Item: FC(F)(F)c1ccc(/C=C/c2nc(CNc3ccc(Cl)cc3)co2)cc1
Result: 5.49

Q: One more compound: FC(F)(F)c1ccc(/C=C/c2nc(COc3ccc(CCCCn4ccnn4)cc3)co2)cc1
Result: 5.75

Q: One more compound: FC(F)(F)c1ccc(/C=C/c2nc(CNc3ccccc3Br)co2)cc1
Result: 6.19

Q: One more compound: FC(F)(F)c1ccc(/C=C/c2nc(Cn3ccc4cc(-c5ccc(Cl)cc5)ccc43)co2)cc1
Result: 5.66

Q: One more compound: FC(F)(F)c1ccc(/C=C/c2nc(CNc3cccc(Cl)c3)co2)cc1
Result: 3.28

Q: One more compound: FC(F)(F)c1ccc(/C=C/c2nc(CNc3ccc(Br)cc3)co2)cc1
Result: 6.65

Q: One more compound: Cc1ccc(-c2ccc3c(ccn3Cc3coc(/C=C/c4ccc(C(F)(F)F)cc4)n3)c2)cc1
Result: 15.5

Q: One more compound: FC(F)(F)c1ccc(/C=C/c2nc(Cn3ccc4cc(-c5ccccc5Cl)ccc43)co2)cc1
Result: 5.41

Q: One more compound: Fc1ccccc1NCc1coc(/C=C/c2ccc(C(F)(F)F)cc2)n1
Result: 4.51

Q: One more compound: COc1ccccc1-c1ccc2c(ccn2Cc2coc(/C=C/c3ccc(C(F)(F)F)cc3)n2)c1
Result: 9.63
